study-system: Cholinesterase (Equus caballus, UniProt P81908)
Sequence (P81908 whole entry): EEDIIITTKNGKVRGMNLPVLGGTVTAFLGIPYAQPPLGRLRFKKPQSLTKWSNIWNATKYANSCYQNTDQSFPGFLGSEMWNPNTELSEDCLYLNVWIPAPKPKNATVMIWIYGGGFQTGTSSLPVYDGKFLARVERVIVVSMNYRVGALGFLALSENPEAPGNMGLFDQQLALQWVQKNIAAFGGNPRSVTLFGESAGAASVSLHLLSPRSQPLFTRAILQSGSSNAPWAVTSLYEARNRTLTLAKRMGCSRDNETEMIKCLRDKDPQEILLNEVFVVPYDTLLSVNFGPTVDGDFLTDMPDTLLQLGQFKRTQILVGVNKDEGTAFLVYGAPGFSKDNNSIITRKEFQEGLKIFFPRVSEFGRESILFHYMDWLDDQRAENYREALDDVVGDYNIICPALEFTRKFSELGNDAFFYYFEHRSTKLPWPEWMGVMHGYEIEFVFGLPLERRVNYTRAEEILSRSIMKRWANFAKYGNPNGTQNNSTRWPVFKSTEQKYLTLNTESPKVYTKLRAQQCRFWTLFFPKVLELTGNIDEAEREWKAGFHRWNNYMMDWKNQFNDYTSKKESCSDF
protocol-notes: Inhibition of equine serum BChE using butyrylthiocholine iodide as substrate preincubated for 10 mins followed by addition of substrate and measured after 15 mins by Ellman's method
Provide the reported pIC50 of each item.
Reminder that pIC50 means the negative base-10 logarithm of the concentration expressed in mol/L.

### Prompt Tell me its pIC50 on Cholinesterase (Equus caballus, UniProt P81908): `O=c1c2cc(NCc3cc(Br)ccc3O)ccc2nc2n1CCC2`
### Response 4.67

### Prompt Tell me its pIC50 on Cholinesterase (Equus caballus, UniProt P81908): `Cc1cc2nc3n(c(=O)c2cc1NCc1cc(Br)ccc1O)CCC3`
### Response 4.68

### Prompt Tell me its pIC50 on Cholinesterase (Equus caballus, UniProt P81908): `Cc1cc2nc3n(c(=O)c2cc1NCc1ccc(Cl)cc1O)CCC3`
### Response 4.69

### Prompt Tell me its pIC50 on Cholinesterase (Equus caballus, UniProt P81908): `Cc1cc2nc3n(c(=O)c2cc1NCc1ccccc1O)CCC3`
### Response 4.73

### Prompt Tell me its pIC50 on Cholinesterase (Equus caballus, UniProt P81908): `O=c1c2cc(NCc3cccc(Br)c3O)ccc2nc2n1CCC2`
### Response 4.68

### Prompt Tell me its pIC50 on Cholinesterase (Equus caballus, UniProt P81908): `Cc1cc2nc3n(c(=O)c2cc1NCc1cccc(Br)c1O)CCC3`
### Response 4.67

### Prompt Tell me its pIC50 on Cholinesterase (Equus caballus, UniProt P81908): `O=c1c2cc(NCc3ccc(Cl)cc3O)ccc2nc2n1CCC2`
### Response 4.66

### Prompt Tell me its pIC50 on Cholinesterase (Equus caballus, UniProt P81908): `O=c1c2cc(NCc3ccccc3O)ccc2nc2n1CCC2`
### Response 4.74

### Prompt Tell me its pIC50 on Cholinesterase (Equus caballus, UniProt P81908): `COc1ccc(CNc2cc3c(=O)n4c(nc3cc2C)CCC4)c(O)c1`
### Response 4.84

### Prompt Tell me its pIC50 on Cholinesterase (Equus caballus, UniProt P81908): `COc1cccc(CNc2ccc3nc4n(c(=O)c3c2)CCC4)c1O`
### Response 4.79

### Prompt Tell me its pIC50 on Cholinesterase (Equus caballus, UniProt P81908): `Cc1cc2nc3n(c(=O)c2cc1NCc1cc(F)ccc1O)CCC3`
### Response 4.69

### Prompt Tell me its pIC50 on Cholinesterase (Equus caballus, UniProt P81908): `COc1ccc(CNc2ccc3nc4n(c(=O)c3c2)CCC4)c(O)c1`
### Response 4.81

### Prompt Tell me its pIC50 on Cholinesterase (Equus caballus, UniProt P81908): `O=c1c2ccccc2nc2n1CCC2`
### Response 4.60

### Prompt Tell me its pIC50 on Cholinesterase (Equus caballus, UniProt P81908): `O=c1c2cc(NCc3cc(F)ccc3O)ccc2nc2n1CCC2`
### Response 4.70

### Prompt Tell me its pIC50 on Cholinesterase (Equus caballus, UniProt P81908): `COc1cccc(CNc2cc3c(=O)n4c(nc3cc2C)CCC4)c1O`
### Response 4.79

====

study-system: Acetylcholinesterase (Homo sapiens)
protocol-notes: Inhibition of AChE (unknown origin)-induced amyloid beta (1 to 42) aggregation at 1 to 5 uM measured after 24 hrs by ThT flourescence assay
details: dose 1-5 µM
# inhibition >= 40% gives True, anything below gives False

### Prompt Given the entry `COc1ccc(CNc2ccc3nc4n(c(=O)c3c2)CCC4)c(O)c1` , answer whether its inhibition meets or surpasses 40%.
### Response True

### Prompt Given the entry `O=c1c2ccccc2nc2n1CCC2` , answer whether its inhibition meets or surpasses 40%.
### Response False

### Prompt Given the entry `O=c1c2cc(NCc3ccccc3O)ccc2nc2n1CCC2` , answer whether its inhibition meets or surpasses 40%.
### Response True

### Prompt Given the entry `Oc1c(I)cc(Cl)c2cccnc12` , answer whether its inhibition meets or surpasses 40%.
### Response False

### Prompt Given the entry `COc1cccc(CNc2cc3c(=O)n4c(nc3cc2C)CCC4)c1O` , answer whether its inhibition meets or surpasses 40%.
### Response True

### Prompt Given the entry `COc1cccc(CNc2ccc3nc4n(c(=O)c3c2)CCC4)c1O` , answer whether its inhibition meets or surpasses 40%.
### Response True

### Prompt Given the entry `COc1ccc(CNc2cc3c(=O)n4c(nc3cc2C)CCC4)c(O)c1` , answer whether its inhibition meets or surpasses 40%.
### Response True

====

protocol-notes: Selectivity index, ratio of IC50 for equine serum BChE to IC50 for electric eel AChE
Provide the reported Ratio IC50 of each item.
Lab note: jot down the number only; don't add units.

### Prompt Name the recorded Ratio IC50 of the molecule listed here: `Cc1cc2nc3n(c(=O)c2cc1NCc1cc(F)ccc1O)CCC3`
### Response 7.56

### Prompt Name the recorded Ratio IC50 of the molecule listed here: `Cc1cc2nc3n(c(=O)c2cc1NCc1cc(Br)ccc1O)CCC3`
### Response 3.95

### Prompt Name the recorded Ratio IC50 of the molecule listed here: `Cc1cc2nc3n(c(=O)c2cc1NCc1ccc(Cl)cc1O)CCC3`
### Response 6.68

### Prompt Name the recorded Ratio IC50 of the molecule listed here: `COc1ccc(CNc2cc3c(=O)n4c(nc3cc2C)CCC4)c(O)c1`
### Response 42.9

### Prompt Name the recorded Ratio IC50 of the molecule listed here: `O=c1c2cc(NCc3ccccc3O)ccc2nc2n1CCC2`
### Response 11.9

### Prompt Name the recorded Ratio IC50 of the molecule listed here: `COc1ccc(CNc2ccc3nc4n(c(=O)c3c2)CCC4)c(O)c1`
### Response 40.5

### Prompt Name the recorded Ratio IC50 of the molecule listed here: `Cc1cc2nc3n(c(=O)c2cc1NCc1cccc(Br)c1O)CCC3`
### Response 3.4

### Prompt Name the recorded Ratio IC50 of the molecule listed here: `COc1cccc(CNc2cc3c(=O)n4c(nc3cc2C)CCC4)c1O`
### Response 19.5

### Prompt Name the recorded Ratio IC50 of the molecule listed here: `O=c1c2cc(NCc3cc(Br)ccc3O)ccc2nc2n1CCC2`
### Response 3.9

### Prompt Name the recorded Ratio IC50 of the molecule listed here: `Cc1cc2nc3n(c(=O)c2cc1NCc1ccccc1O)CCC3`
### Response 11.7

### Prompt Name the recorded Ratio IC50 of the molecule listed here: `COc1cccc(CNc2ccc3nc4n(c(=O)c3c2)CCC4)c1O`
### Response 17.8

### Prompt Name the recorded Ratio IC50 of the molecule listed here: `O=c1c2cc(NCc3cc(F)ccc3O)ccc2nc2n1CCC2`
### Response 7.91

### Prompt Name the recorded Ratio IC50 of the molecule listed here: `O=c1c2cc(NCc3ccc(Cl)cc3O)ccc2nc2n1CCC2`
### Response 4.52

### Prompt Name the recorded Ratio IC50 of the molecule listed here: `O=c1c2cc(NCc3cccc(Br)c3O)ccc2nc2n1CCC2`
### Response 3.6

====

Provide the reported IC50 of each item.
study-system: Amyloid-beta precursor protein (Homo sapiens, UniProt P05067)
Sequence (P05067 whole entry): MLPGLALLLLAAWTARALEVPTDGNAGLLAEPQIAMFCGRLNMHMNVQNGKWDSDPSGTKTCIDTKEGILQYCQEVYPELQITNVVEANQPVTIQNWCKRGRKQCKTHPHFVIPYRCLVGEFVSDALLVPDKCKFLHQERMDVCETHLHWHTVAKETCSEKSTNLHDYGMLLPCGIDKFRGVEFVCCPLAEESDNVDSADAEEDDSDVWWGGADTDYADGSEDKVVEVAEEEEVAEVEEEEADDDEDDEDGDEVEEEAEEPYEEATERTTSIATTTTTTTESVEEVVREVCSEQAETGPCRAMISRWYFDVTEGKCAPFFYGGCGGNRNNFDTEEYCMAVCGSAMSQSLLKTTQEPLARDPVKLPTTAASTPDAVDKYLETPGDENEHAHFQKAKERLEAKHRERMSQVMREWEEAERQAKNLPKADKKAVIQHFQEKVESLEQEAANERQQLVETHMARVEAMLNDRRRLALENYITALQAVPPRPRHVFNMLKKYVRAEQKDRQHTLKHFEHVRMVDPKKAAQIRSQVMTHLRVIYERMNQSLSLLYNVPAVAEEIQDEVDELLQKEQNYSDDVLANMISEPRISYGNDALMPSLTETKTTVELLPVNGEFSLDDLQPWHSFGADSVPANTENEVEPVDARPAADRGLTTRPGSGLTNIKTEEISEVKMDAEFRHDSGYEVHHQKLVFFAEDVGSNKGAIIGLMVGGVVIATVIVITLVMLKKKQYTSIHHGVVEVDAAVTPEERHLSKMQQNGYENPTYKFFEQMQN
protocol-notes: Inhibition of human amyloid beta (1 to 42) self-induced aggregation measured after 48 hrs by ThT flourescence assay
Give a bare numeral; the unit µM is implied.

### Prompt Tell me its IC50 on Amyloid-beta precursor protein (Homo sapiens, UniProt P05067): `O=c1c2cc(NCc3ccc(Cl)cc3O)ccc2nc2n1CCC2`
### Response 7.02

### Prompt Tell me its IC50 on Amyloid-beta precursor protein (Homo sapiens, UniProt P05067): `Cc1cc2nc3n(c(=O)c2cc1NCc1cccc(Br)c1O)CCC3`
### Response 9.27

### Prompt Tell me its IC50 on Amyloid-beta precursor protein (Homo sapiens, UniProt P05067): `O=c1c2cc(NCc3cc(F)ccc3O)ccc2nc2n1CCC2`
### Response 6.3

### Prompt Tell me its IC50 on Amyloid-beta precursor protein (Homo sapiens, UniProt P05067): `O=c1c2cc(NCc3cccc(Br)c3O)ccc2nc2n1CCC2`
### Response 8.34

### Prompt Tell me its IC50 on Amyloid-beta precursor protein (Homo sapiens, UniProt P05067): `COc1cccc(CNc2ccc3nc4n(c(=O)c3c2)CCC4)c1O`
### Response 4.2
